- System: S. aureus MS15027
- ASSAY_COMMENT: MIC, agar plate dilution method
- Assay type: cell-based
- DETAILS: Staphylococcus aureus, MS15027, 20 h, read-out: Antimicrobial activity (MIC), 37° C., 20 hours, SDA with 5% horse blood
OBSERVATION_TYPE: MIC (µg/mL)
Entry rule: numbers only, all in µg/mL.

STRUCTURE_AS_SMILES | ENDPOINT_VALUE
CCCCC(=O)O[C@H]1[C@H](C)O[C@@H](O[C@H]2[C@H](N(C)C)[C@@H](O)[C@H](O[C@H]3[C@@H](CC=O)C[C@@H](C)[C@@H](O)/C=C/C=C/C[C@@H](C)OC(=O)C[C@@H](O)[C@@H]3OC)O[C@@H]2C)C[C@@]1(C)OC | 0.2
CCCC(=O)O[C@H]1[C@H](C)O[C@@H](O[C@H]2[C@H](N(C)C)[C@@H](O)[C@H](O[C@H]3[C@@H](CC=O)C[C@@H](C)[C@@H](O)/C=C/C=C/C[C@@H](C)OC(=O)C[C@@H](O)[C@@H]3OC)O[C@@H]2C)C[C@@]1(C)OC | 0.2

Continue with the next compound.
## Input Need MIC, item CCC(=O)O[C@@H]1CC(=O)O[C@H](C)C/C=C/C=C/[C@H](O)[C@H](C)C[C@H](CC=O)[C@H](O[C@@H]2O[C@H](C)[C@@H](O[C@H]3C[C@@](C)(OC)[C@@H](O)[C@H](C)O3)[C@H](N(C)C)[C@H]2O)[C@H]1OC
## Output 0.78
